Test system: non-replicating M. tuberculosis, luciferase reporter luminescence
Test: inhibitors of non-replicating M. tuberculosis, dose response, luciferase, dry powder (AID 743183)
Inconclusive results are not listed.
parameter measured: AC90

>>> print(df.to_string())
                  chemical_structure                           measured_target  parameter_measured  experimental_result
0  Brc1c(-c2ccc3c(c2)OCO3)nc2ncccn12  non-replicating M. tuberculosis, luciferase reporter luminescence                AC90              12.9 µM

Data request: Determine from records and report AC90 for Clc1cccc(CNCCNCc2cccc(Cl)c2)c1
Data returned: 19.4 µM
